# Target Or System: JAK2 (Homo sapiens)
# Construct: 5 μl of catalytic domain recombinant Kinase enzyme+Tyr peptide substrate (Invitrogen, Calif.)
# Sequence (O60674 849-1124 limits assumed): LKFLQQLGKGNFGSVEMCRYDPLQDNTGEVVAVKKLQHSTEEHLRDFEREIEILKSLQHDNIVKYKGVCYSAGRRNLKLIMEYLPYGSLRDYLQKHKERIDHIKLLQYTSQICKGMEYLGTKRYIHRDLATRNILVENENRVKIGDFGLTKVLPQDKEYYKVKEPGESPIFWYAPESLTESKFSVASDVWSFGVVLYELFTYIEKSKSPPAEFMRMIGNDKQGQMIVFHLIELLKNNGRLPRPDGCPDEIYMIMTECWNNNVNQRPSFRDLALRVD
# Run Description: Z'-LYTE kinase assay, JAK2 tyrosine phosphorylation activity
pIC50: −log10 of the molar value.
Readout: pIC50

COCC(=O)N(c1cccc(Nc2ncc(C(N)=O)c(N[C@H](C)c3ccccc3)n2)c1)C1CC1 : 7.00 to 8.00

Input line: Requested field: pIC50. Item: COCC(=O)Nc1cc(Nc2ncc(C(N)=O)c(NCc3ccccc3)n2)ccc1Cl
Output line: 6.00 to 7.00

Input line: Requested field: pIC50. Item: CNC(=O)Nc1cc(Nc2ncc(C(N)=O)c(NCc3ccccc3)n2)ccc1Cl
Output line: 6.00 to 7.00

Input line: Requested field: pIC50. Item: CN1CCN(C(=O)Nc2cccc(Nc3ncc(C(N)=O)c(NCc4ccccc4)n3)c2)CC1
Output line: 7.00 to 8.00

Input line: Requested field: pIC50. Item: COc1ccc(Nc2ncc(C(N)=O)c(NCc3ccccc3)n2)cc1NC(=O)N1CCCC1
Output line: 7.00 to 8.00

Input line: Requested field: pIC50. Item: COC(CNc1nc(Nc2cccc(NC(C)=O)c2)ncc1C(N)=O)c1ccccc1 (stereo not shown)
Output line: 7.00 to 8.00

Input line: Requested field: pIC50. Item: CNC(=O)c1cnc(Nc2cccc(NC(=O)COC)c2)nc1NC1Cc2ccccc2C1
Output line: 7.00 to 8.00

Ref: patent US8853230B2
